Tested on: iPSC-derived human cortical glutamatergic neurons
Assay type: cell-based
Conditions: cortical neurons, 24 hours of treatment
Readout Type: neurite outgrowth inhibition (activity call)

> print(dat)
                                   compound                             system.tested  reported.result
1  CC(C)(C)C(O)(CCc1ccc(Cl)cc1)Cn1cncn1 (stereo not shown)  iPSC-derived human cortical glutamatergic neurons       not active
2             CC(C)(c1ccc(O)cc1)c1ccc(O)cc1  iPSC-derived human cortical glutamatergic neurons       not active
3  CC1(C)[C@H](C(=O)O[C@H](C#N)c2cccc(Oc3ccccc3)c2)[C@@H]1C=C(Br)Br  iPSC-derived human cortical glutamatergic neurons       not active

----------
Test system: iPSC-derived human cortical glutamatergic neurons
Type: cell-based
Details: cortical neurons; active at either 24 or 48 hours; 1.56 nM to 92 μM
Readout Type: neurite outgrowth inhibition (activity call)

> print(dat)
                                   molecule  reported.result
1  [CH3][Hg][Cl] [methyl mercuric (II) chloride]        inhibited
2  COc1cc2c(c(OC)c1OC)-c1ccc(OC)c(=O)cc1[C@@H](NC(C)=O)CC2 [Colchicine]        inhibited
3  CC(C)(c1cc(Br)c(O)c(Br)c1)c1cc(Br)c(O)c(Br)c1 [3,3’,5,5’-tetrabromobisphenol A]        inhibited
